test.system: PI3Kα H1047R (T47D cells) (Homo sapiens, UniProt P42336, H1047R)
Construct: endogenous in cells; host or cells: T47D cells
Sequence (P42336 whole entry H1047R): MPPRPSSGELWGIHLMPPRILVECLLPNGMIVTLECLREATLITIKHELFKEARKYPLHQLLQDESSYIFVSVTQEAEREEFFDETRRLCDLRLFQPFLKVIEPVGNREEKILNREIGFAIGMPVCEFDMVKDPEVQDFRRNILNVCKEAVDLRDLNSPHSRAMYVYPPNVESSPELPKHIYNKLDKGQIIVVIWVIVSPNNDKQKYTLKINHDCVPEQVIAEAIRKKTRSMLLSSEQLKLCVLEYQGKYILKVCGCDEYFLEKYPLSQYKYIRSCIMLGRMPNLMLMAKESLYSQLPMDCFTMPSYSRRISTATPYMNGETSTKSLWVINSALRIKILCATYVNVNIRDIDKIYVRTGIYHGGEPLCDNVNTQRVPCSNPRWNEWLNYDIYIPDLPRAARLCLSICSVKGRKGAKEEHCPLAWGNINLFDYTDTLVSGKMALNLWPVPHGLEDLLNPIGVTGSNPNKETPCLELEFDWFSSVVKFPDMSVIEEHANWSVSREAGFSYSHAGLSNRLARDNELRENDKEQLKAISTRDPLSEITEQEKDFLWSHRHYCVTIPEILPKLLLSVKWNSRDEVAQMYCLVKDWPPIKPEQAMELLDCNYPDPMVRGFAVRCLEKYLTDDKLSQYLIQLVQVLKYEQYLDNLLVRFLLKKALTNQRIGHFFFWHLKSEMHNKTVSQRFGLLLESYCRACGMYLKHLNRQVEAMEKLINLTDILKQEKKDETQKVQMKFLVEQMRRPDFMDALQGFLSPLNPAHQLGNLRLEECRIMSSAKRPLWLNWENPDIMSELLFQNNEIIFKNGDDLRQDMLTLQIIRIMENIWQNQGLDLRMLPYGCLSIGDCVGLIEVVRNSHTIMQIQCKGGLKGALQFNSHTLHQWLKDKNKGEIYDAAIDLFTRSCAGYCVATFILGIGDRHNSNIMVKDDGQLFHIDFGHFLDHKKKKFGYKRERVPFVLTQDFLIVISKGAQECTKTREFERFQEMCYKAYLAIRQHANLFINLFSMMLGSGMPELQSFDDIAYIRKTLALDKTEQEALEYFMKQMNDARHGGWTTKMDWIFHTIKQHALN
Sequence (P27986 whole entry partner): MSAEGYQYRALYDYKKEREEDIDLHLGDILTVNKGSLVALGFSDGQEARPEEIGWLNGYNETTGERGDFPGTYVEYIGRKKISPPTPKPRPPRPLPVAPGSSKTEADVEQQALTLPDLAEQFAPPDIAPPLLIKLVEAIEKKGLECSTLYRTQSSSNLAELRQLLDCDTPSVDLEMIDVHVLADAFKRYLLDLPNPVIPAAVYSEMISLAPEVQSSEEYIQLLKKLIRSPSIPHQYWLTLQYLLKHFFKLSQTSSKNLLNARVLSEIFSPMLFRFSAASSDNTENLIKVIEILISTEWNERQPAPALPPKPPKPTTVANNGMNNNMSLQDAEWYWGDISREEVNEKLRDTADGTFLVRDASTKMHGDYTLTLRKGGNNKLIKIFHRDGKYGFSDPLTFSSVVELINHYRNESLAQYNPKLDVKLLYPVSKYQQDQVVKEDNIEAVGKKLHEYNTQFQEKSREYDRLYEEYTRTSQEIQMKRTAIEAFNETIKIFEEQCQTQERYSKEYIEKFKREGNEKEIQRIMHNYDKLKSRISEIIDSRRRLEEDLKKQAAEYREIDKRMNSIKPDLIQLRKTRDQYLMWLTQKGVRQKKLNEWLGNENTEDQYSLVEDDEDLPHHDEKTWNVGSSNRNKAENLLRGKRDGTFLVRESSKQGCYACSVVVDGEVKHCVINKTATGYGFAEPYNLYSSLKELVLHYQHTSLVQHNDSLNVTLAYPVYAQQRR
experiment.notes: PI3Kα cellular assay: pAKT HTRF in T47D cells after EGF stimulation
Assay type: cell-based
experimental.parameters: T47D cells (PI3Kα H1047R), pAKT S473 HTRF, 1 hr compound, 20 ng/ml EGF 10 min
pIC50: −log10 of the molar value.
Entries and their pIC50 values follow.

Some compounds with known pIC50 results, for comparison:
Query CC(=O)Cc1cc2ccc(-c3cc(=O)n4cc(C)cc(C(C)Nc5ccccc5C(=O)O)c4n3)cn2n1 (centres unmarked) yields pIC50 of < 5.70

The compound listed as Cc1cc(C(C)Nc2ccc(F)cc2C(=O)O)c2nc(N3CCOCC3)cc(=O)n2c1 (centres unmarked) shows pIC50 equal to 5.70 to 6.30

# pIC50 (compound: Cc1cc([C@H](C)Nc2ccccc2C(=O)O)c2nc(-c3ccc4[nH]cnc4c3)cc(=O)n2c1 ) is < 5.70

So for Cc1cc([C@H](C)Nc2cnncc2C(=O)O)c2nc(N3CCOCC3)cc(=O)n2c1 , the logged pIC50 turned out to be < 5.70

Field pIC50 (entry Cc1cc([C@H](C)Nc2ccccc2C(=O)O)c2nc(N3CCN(C(=O)CN)CC3)cc(=O)n2c1 ) reads < 5.70

Continuing:
get_value(item= Cc1cc(C(C)Nc2ccnnc2C(=O)O)c2nc(N3CCOCC3)cc(=O)n2c1 (centres unmarked) , readout=pIC50) returns < 5.70

Recorded result, Cc1cc([C@@H](C)Nc2ccccc2-c2ccnnc2)c2nc(N3CCOCC3)cc(=O)n2c1 , pIC50: < 5.70

Value of pIC50 reported for the compound Cc1cc(C(C)Nc2ccccc2C(=O)O)c2nc(-c3ccc4c(c3)c(N)nn4C)cc(=O)n2c1 (centres unmarked) [Compound 347] is 6.30 to 7.00
